Data provenance is patent US12447153B2.

# TESTED TARGET: EGFR wild type (EGFR WT) (Homo sapiens (Human))
# Sequence (P00533 25-1210): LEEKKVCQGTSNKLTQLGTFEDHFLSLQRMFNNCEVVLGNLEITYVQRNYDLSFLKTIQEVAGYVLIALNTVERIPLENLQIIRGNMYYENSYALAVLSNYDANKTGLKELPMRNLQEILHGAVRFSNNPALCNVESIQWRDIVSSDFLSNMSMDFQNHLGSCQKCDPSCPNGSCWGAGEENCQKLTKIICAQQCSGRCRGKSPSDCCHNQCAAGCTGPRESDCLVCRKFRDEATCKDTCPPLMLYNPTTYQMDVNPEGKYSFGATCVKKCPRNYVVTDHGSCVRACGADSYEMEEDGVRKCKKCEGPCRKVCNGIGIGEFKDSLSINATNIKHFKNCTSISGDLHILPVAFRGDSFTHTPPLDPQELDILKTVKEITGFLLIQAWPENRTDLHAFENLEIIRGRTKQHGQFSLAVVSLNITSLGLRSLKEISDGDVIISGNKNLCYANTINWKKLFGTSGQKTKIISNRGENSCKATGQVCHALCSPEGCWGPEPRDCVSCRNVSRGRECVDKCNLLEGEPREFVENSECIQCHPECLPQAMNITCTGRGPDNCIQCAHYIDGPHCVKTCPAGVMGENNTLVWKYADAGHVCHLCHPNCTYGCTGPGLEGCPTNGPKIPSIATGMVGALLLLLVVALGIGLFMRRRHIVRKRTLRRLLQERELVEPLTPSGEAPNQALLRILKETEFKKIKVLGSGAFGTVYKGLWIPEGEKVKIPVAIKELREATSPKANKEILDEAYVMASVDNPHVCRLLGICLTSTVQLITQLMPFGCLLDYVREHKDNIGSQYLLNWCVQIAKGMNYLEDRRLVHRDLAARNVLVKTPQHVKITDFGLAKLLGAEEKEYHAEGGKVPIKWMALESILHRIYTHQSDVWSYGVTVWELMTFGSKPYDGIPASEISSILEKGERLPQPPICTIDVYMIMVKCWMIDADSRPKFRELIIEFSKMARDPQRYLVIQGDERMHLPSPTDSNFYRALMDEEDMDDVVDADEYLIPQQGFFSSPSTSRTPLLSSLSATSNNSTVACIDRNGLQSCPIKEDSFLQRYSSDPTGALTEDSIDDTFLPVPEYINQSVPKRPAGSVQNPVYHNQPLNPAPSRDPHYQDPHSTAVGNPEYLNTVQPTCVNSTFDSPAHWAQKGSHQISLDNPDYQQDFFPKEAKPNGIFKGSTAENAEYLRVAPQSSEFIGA
# ASSAY EXPLANATION: Cellular Phosphorylation Assay, Assay 5 (EGF-stimulated EGFR phosphorylation, NIH 3T3 cells)
# Type: cell-based
# STUDY CONDITIONS: EGF-stimulated EGFR WT phosphorylation
pIC50: −log10 of the molar value.
MEASURED ATTRIBUTE: pIC50

| COMPOUND | RESULT |
| --- | --- |
| C=CC(=O)N1CCN(c2ccc3ncnc(Nc4ccc(Oc5cnc6c(c5)ncn6C)c(C)c4F)c3n2)C[C@@H]1C1CC1 [Example 167] | ≤ 5.30 |
| C=CC(=O)N1[C@H](C)CN(c2ccc3ncnc(Nc4ccc(Oc5ccc6c(c5)ncn6C)c(C)c4F)c3n2)C[C@@H]1C [Example 115] | ≤ 5.30 |
| C=CC(=O)N1CCC(Sc2ccc3ncnc(Nc4cc(C)c(Oc5ccc6c(c5)ncn6C)cc4F)c3n2)CC1 [Example 64] | ≤ 5.30 |
| C=CC(=O)N1CCCN(c2ccc3ncnc(Nc4ccc(Oc5cnc6c(c5)ncn6C)c(Cl)c4)c3n2)CC1 [Example 113] | ≤ 5.30 |
| C=CC(=O)N1C[C@H]2CC[C@@H](C1)[C@@H]2c1ccc2ncnc(Nc3ccc(Oc4ccn5ncnc5c4)c(C)c3)c2n1 [Example 221] | ≤ 5.30 |
| C=CC(=O)N1CCC(Oc2ccc3ncnc(Nc4cc(C)c(Oc5ccc6cn(C)nc6c5)cc4F)c3n2)CC1 [Example 5] | ≤ 5.30 |
| C=CC(=O)N1C[C@@H](c2ccc3ncnc(Nc4ccc(Oc5ccc6c(c5)ncn6C)c(C)c4F)c3n2)C[C@@H]1C [Example 191] | 5.54 |
| C=CC(=O)N1C[C@@H]2C[C@H]1CN2c1ccc2ncnc(Nc3cc(Cl)c(Oc4ccn5ncnc5c4)cc3F)c2n1 [Example 80] | 6.61 |
| C=CC(=O)N1[C@@H]2CC[C@H]1C[C@@H](c1ccc3ncnc(Nc4cc(C)c(Oc5ccn6ncnc6c5)cc4F)c3n1)C2 [Example 206] | ≤ 5.30 |
| C=CC(=O)N1C[C@@H](c2ccc3ncnc(Nc4cc(C)c(Oc5ccc6c(c5)ncn6C)cc4F)c3n2)C[C@@H]1C [Example 190] | ≤ 5.30 |

Task: Requested field: pIC50. Item: C=CC(=O)N1CCN(c2ccc3ncnc(Nc4ccc(Oc5ccn6ncnc6c5)c(Cl)c4F)c3n2)C[C@H]1C [Example 91]
Output: 7.25

Task: Requested field: pIC50. Item: C=CC(=O)N1CCC[C@@H](c2ccc3ncnc(Nc4cc(C)c(Oc5ccc6c(c5)ncn6C)cc4F)c3n2)CC1 (racemic) [Example 135]
Output: ≤ 5.30

Task: Requested field: pIC50. Item: C=CC(=O)N1CCCN(c2ccc3ncnc(Nc4ccc(Oc5ccn6ncnc6c5)c(Cl)c4F)c3n2)CC1 [Example 98]
Output: 5.57

Task: Requested field: pIC50. Item: C=CC(=O)N1C[C@H]2C[C@H](c3ccc4ncnc(Nc5cc(C)c(Oc6ccc7c(c6)ncn7C)cc5F)c4n3)C[C@H]2C1 [Example 136]
Output: ≤ 5.30

Task: Requested field: pIC50. Item: C=CC(=O)N1CC[C@H]2CN(c3ccc4ncnc(Nc5ccc(Oc6ccn7ncnc7c6)c(C)c5F)c4n3)C[C@H]21 [Example 50]
Output: 5.49
